assay-text: Dasatinib single oral gavage plasma pharmacokinetics (NLME modeling)
Type: in vivo, mouse
applied-conditions: female, C57BL/6, mouse, plasma, oral, 10 mg/kg, GROUP:VD3 Suf, SEX:F, OCC 2, time 0.5; read-out: DV (dasatinib plasma concentration)
measured-parameter: concentration at 0.5 h (ng/mL)
The answer is to be given in ng/mL; state only the numeric part.

Input line: Look at this compound and give its reported concentration at 0.5 h. Cc1nc(Nc2ncc(C(=O)Nc3c(C)cccc3Cl)s2)cc(N2CCN(CCO)CC2)n1 [dasatinib]
Output line: 137
